tested on: Plasmodium falciparum; assay: GSK_TCMDC: Inhibition of Plasmodium falciparum 3D7 in whole red blood cells, using parasite LDH activity as an index of growth. Test compounds present at 2uM; format: functional
// reported Inhibition per item
Could you give me the number in %? Just the number is fine.

compound: Cl.O=C1COc2cc(Cl)c(CNC3CCN(CCc4ccnc5c(F)cc(F)cc45)CC3)nc2N1
experimental-readout: Inhibition
measured-number: 98

compound: O=C(Nc1cccc(-c2cccc(-c3nc4cc(F)ccc4[nH]3)c2)c1)Nc1ccc(F)c(F)c1F
experimental-readout: Inhibition
measured-number: 100

compound: Cc1cnc(Nc2ccccc2)nc1N[C@@H](CCCN)C(=O)Nc1ccccc1.O=C(O)C(F)(F)F
experimental-readout: Inhibition
measured-number: 100

compound: COc1ccc(-c2nc3c4ccccc4c4ccc(I)cc4c3[nH]2)cc1
experimental-readout: Inhibition
measured-number: 96

compound: Cc1cc(C2CCN(CCCCNC(=O)c3ccc(NC(=O)c4ccc(Cl)cc4)cc3)CC2)c(C)cc1OCCN(C)C
experimental-readout: Inhibition
measured-number: 100

compound: Cn1ccnc1CNC(=O)c1ccc(-c2ccc(-c3nc4cc(C(F)(F)F)ccc4[nH]3)s2)cc1
experimental-readout: Inhibition
measured-number: 100

compound: N#CCCN1CCN(Cc2cccc(-c3ccc(-c4nc5cc(C(F)(F)F)ccc5[nH]4)cc3)c2)CC1.O=C(O)C(F)(F)F
experimental-readout: Inhibition
measured-number: 100

compound: COc1ccccc1CNC(=O)CCn1c(=O)[nH]c2ccsc2c1=O
experimental-readout: Inhibition
measured-number: 85

compound: OC(CNc1ccnc(Nc2cccc(Cl)c2)n1)c1cccc(C(F)(F)F)c1 (centres undefined)
experimental-readout: Inhibition
measured-number: 100

compound: Cc1cc(Nc2nc(NCc3cccnc3)nc3ccccc23)n[nH]1
experimental-readout: Inhibition
measured-number: 100

Turning to the following compound.
Record CC(C)c1ccc(CN2CCC(CNC(=O)c3cc(-c4cccc(C(F)(F)F)c4)cs3)C2)cc1.O=C(O)C(F)(F)F (centres undefined) . Reported Inhibition: 99

---

tested on: Plasmodium falciparum; assay: GSK_TCMDC: Inhibition of Plasmodium falciparum Dd2 in whole red blood cells, using parasite LDH activity as an index of growth. Test compounds present at 2uM; format: functional
Recorded Inhibition determines the group label, using interval 1: < 30%; interval 2: ≥ 30% and < 80%; interval 3: ≥ 80%

The following molecules have reported results that may help.
molecule: CC1CCc2c(C(=O)Nc3c(F)cc(F)cc3Br)csc2C1 (stereo not given)
group-label: interval 2
//
molecule: CS(=O)(=O)CCOCc1ccc(-c2ccc3ncnc(Nc4ccc(OCc5cccc(F)c5)c(Cl)c4)c3c2)o1
group-label: interval 2
//
molecule: COc1ccc(Nc2nccc(N3CCC(NC(=O)Nc4cc(C)ccc4C)C3)n2)cc1 (stereo not given)
group-label: interval 2
//
molecule: O=C(NCC1CCN(Cc2ccc3c(c2)OCCO3)C1)c1cc(-c2cccc(C(F)(F)F)c2)cs1.O=C(O)C(F)(F)F (stereo not given)
group-label: interval 1
//
molecule: FC(F)(F)c1cccnc1N1CCC(Nc2nc3cc(Cl)ccc3[nH]2)CC1
group-label: interval 2
//
molecule: Nc1nc(N)c2c(ccc3c2ccn3CC2CC2)n1
group-label: interval 1
//
molecule: CCCCCCCCc1c(C)nc(C)c(C#N)c1O
group-label: interval 3
//
molecule: CC1CCC2(CC1)N=C(N)N=C(N)N2OCc1cc2ccccc2c2ccccc12 (stereo not given)
group-label: interval 2
//
molecule: Cl.O=C(Nc1cccc(Cl)c1)OC1CCCN2CCCCC12 (stereo not given)
group-label: interval 1
//
molecule: CN(CCN1CCCC1)c1nc2cc(-n3cnc4cc(-c5ccc(Cl)cc5)sc4c3=O)ccc2[nH]1.CS(=O)(=O)O
group-label: interval 1

Shift focus to the following entry.
[in] Consider O=C(/C=C/c1ccc(Cl)c(Cl)c1)NCCCCCN1CCC(NC(=O)Nc2ccccc2Cl)CC1 . To which Inhibition class does it belong?
[out] interval 1
